procedure details: Nitroreductase enzyme assay with SN 23862 as substrate (HPLC)
Type: biochemical
assay conditions: Table 6
outcome measure: SN 23862 acitvity

>>> observed_result("YdgI (Bacillus subtilis subsp. subtilis str. 168) (protein, made in house; host or cells: E. coli (pMTL1015; HMS174)) MIKTNDFMEIMKGRRSIRNYDPAVKISKEEMTEILEEATTAPSSVNAQPWRFLVIDSPEGKEKLAPLASFNQTQVTTSSAVIAVFADMNNADYLEEIYSKAVELGYMPQEVKDRQIAALTAHFEKLPAQVNRETILIDGGLVSMQLMLTARAHGYDTNPIGGYDKENIAETFGLDKERYVPVMLLSIGKAADEGYASYRLPIDTIAEWK")
"Yes"
>>> observed_result("Synechocystis: nitroreductase from Synechocystis sp PCC 6803, SEQ ID NO: 19 (protein, Synechocystis PCC6803) MDTFDAIYQRRSVKHFDPDHRLTAEEERKLHEAAIQAPTSFNIQLWRFLIIRDPQLRQTIREKYGNQAQMTDASLLILVAADVNAWDKDPARYWRNAPREVANYLVGAIAFYGGKPQLQRDEAQRSIGMAMQNLMLAAKAMGYDSCPMIGFDLQKVAELVKLPADYAIGPMVAIGKRTEDARAKGGQTPLEELVWENSFA")
"Weak"
>>> observed_result("P. gingivalis YwrO: nitroreductase from Porphyromonas gingivalis, SEQ ID NO: 25 (protein, listed as Porphyromonas gingivalis) MKKTLVIVVHPDLTKSVINKAWAKAIEGAATIHHLYEQYPNGQIDLAHEQALLEAHDRIVFQFPLYWYAAPYLLKKWMDEVFTEGWAYGAGGDKMEGKEICAAVSCGSPKSAFAEGAQQCHTLRSYLNVFDGIAAFLRARFTGYHACYDSYNPRLPEMLPANCEAYLRFIKGE")
"Yes"
